Recorded Displacement (%, 10 μmol) values for a group of compounds are listed next.
- assayed_system: glycine binding site of the NMDA receptor channel (Rattus norvegicus, UniProt P35439)
- Construct: from tissue; host or cells: rat brain cortex and hippocampus membrane homogenate (male Wistar rats)
- assay_text: Receptor binding studies, displacement of (3H)-MDL 105,519 from brain membrane homogenates
- assay_conditions: percentage of bonded radioactive ligand (3H)-MDL 105,519 displaced from specific binding at 10 μM of test substance

[
  {
    "compound": "CSCc1ccc(C(Nc2cc(Cl)cc(Cl)c2)C(=O)O)o1.[Na] (stereo not shown)",
    "Displacement (%, 10 μmol) [%]": 78
  },
  {
    "compound": "O=C([O-])C(Nc1cc(Cl)cc(Cl)c1)c1ccc(Cl)s1.[Na+] (stereo not shown)",
    "Displacement (%, 10 μmol) [%]": 72
  },
  {
    "compound": "CSCc1ccc(C(Nc2cc(Cl)cc(Cl)c2)C(=O)O)o1 (stereo not shown)",
    "Displacement (%, 10 μmol) [%]": 65
  },
  {
    "compound": "CSCc1ccc(C(Nc2cc(Cl)cc(Cl)c2)C(=O)O)o1.Cl (stereo not shown) [Example 106-HCl]",
    "Displacement (%, 10 μmol) [%]": 91
  }
]

====

Here the recorded inhibition at 10 µM is given for each entry.
- assayed_system: glycine binding site of the NMDA receptor channel (Rattus norvegicus)
- Construct: from tissue; host or cells: rat brain cortex and hippocampus membrane homogenate (male Wistar rats)
- assay_text: Receptor binding studies, displacement of (3H)-MDL 105,519 from brain membrane homogenates
- assay_conditions: percentage of bonded radioactive ligand (3H)-MDL 105,519 displaced from specific binding at 10 μM of test substance; read-out: Displacement (%, 10 μmol)
- Description: The tests to determine the affinity of the compounds of formula (I) according to the invention for the glycine binding site of the NMDA receptor channel were carried out on brain membrane homogenates (homogenate of cortex and hippocampus area from the brains of male rats, Wistar strain) (B. M. Baron, B. W. Siegel, B. L. Harrison, R. S. Gross, C. Hawes and P. Towers, Journal of Pharmacology and Experimental Therapeutics, (1996), Vol. 279, p. 62). […]
Where a name gives a salt, the structure may show the parent alone.
reported_endpoint: inhibition at 10 µM

[
  {
    "compound": "O=C(O)C(Nc1cc(Cl)cc(Cl)c1)c1ccc(Cl)s1 (stereo not shown) [Example 127]",
    "assayed_system": "glycine binding site of the NMDA receptor channel (Rattus norvegicus)",
    "reported_endpoint": "inhibition at 10 µM",
    "experimental_result": "68%"
  },
  {
    "compound": "O=C(O)C(Nc1ccc(Cl)c(Cl)c1)c1ccc(CS)o1 (stereo not shown) [Example 114]",
    "assayed_system": "glycine binding site of the NMDA receptor channel (Rattus norvegicus)",
    "reported_endpoint": "inhibition at 10 µM",
    "experimental_result": "45%"
  },
  {
    "compound": "CSSCc1ccc(C(Nc2cc(Cl)cc(Cl)c2)C(=O)O)o1 (stereo not shown) [Example 121]",
    "assayed_system": "glycine binding site of the NMDA receptor channel (Rattus norvegicus)",
    "reported_endpoint": "inhibition at 10 µM",
    "experimental_result": "106%"
  },
  {
    "compound": "O=C(O)C(Nc1cc(Cl)cc(Cl)c1)c1ccc(CS)o1 (stereo not shown) [Example 107]",
    "assayed_system": "glycine binding site of the NMDA receptor channel (Rattus norvegicus)",
    "reported_endpoint": "inhibition at 10 µM",
    "experimental_result": "101%"
  },
  {
    "compound": "CC(=O)SCc1ccc(C(Nc2cc(Cl)cc(Cl)c2)C(=O)O)o1 (stereo not shown) [Example 110]",
    "assayed_system": "glycine binding site of the NMDA receptor channel (Rattus norvegicus)",
    "reported_endpoint": "inhibition at 10 µM",
    "experimental_result": "104%"
  },
  {
    "compound": "O=C(O)C(Nc1cc(Cl)cc(Cl)c1)c1ccc(CO)s1 (stereo not shown) [Example 109]",
    "assayed_system": "glycine binding site of the NMDA receptor channel (Rattus norvegicus)",
    "reported_endpoint": "inhibition at 10 µM",
    "experimental_result": "66%"
  },
  {
    "compound": "CC(=O)OCc1ccc(C(Nc2cc(Cl)cc(Cl)c2)C(=O)O)o1 (stereo not shown) [Example 123]",
    "assayed_system": "glycine binding site of the NMDA receptor channel (Rattus norvegicus)",
    "reported_endpoint": "inhibition at 10 µM",
    "experimental_result": "60%"
  },
  {
    "compound": "Cc1csc(C(Nc2cc(Cl)cc(Cl)c2)C(=O)O)c1 (stereo not shown) [Example 126]",
    "assayed_system": "glycine binding site of the NMDA receptor channel (Rattus norvegicus)",
    "reported_endpoint": "inhibition at 10 µM",
    "experimental_result": "52%"
  },
  {
    "compound": "CC(C)(C)c1ccc(C(Nc2cc(Cl)cc(Cl)c2)C(=O)O)o1 (stereo not shown) [Example 119-HCl]",
    "assayed_system": "glycine binding site of the NMDA receptor channel (Rattus norvegicus)",
    "reported_endpoint": "inhibition at 10 µM",
    "experimental_result": "91%"
  },
  {
    "compound": "O=C(O)C(Nc1cccc(Cl)c1)c1ccc(CS)o1 (stereo not shown) [Example 113]",
    "assayed_system": "glycine binding site of the NMDA receptor channel (Rattus norvegicus)",
    "reported_endpoint": "inhibition at 10 µM",
    "experimental_result": "99%"
  },
  {
    "compound": "Cc1ccc(C(Nc2cc(Cl)cc(Cl)c2)C(=O)O)s1 (stereo not shown) [Example 125-Na, sodium salt]",
    "assayed_system": "glycine binding site of the NMDA receptor channel (Rattus norvegicus)",
    "reported_endpoint": "inhibition at 10 µM",
    "experimental_result": "63%"
  },
  {
    "compound": "O=C(O)C(Nc1cc(Cl)cc(Cl)c1)c1ccc(CSSCc2ccco2)o1 (stereo not shown) [Example 120]",
    "assayed_system": "glycine binding site of the NMDA receptor channel (Rattus norvegicus)",
    "reported_endpoint": "inhibition at 10 µM",
    "experimental_result": "103%"
  },
  {
    "compound": "CCc1ccc(C(Nc2cc(Cl)cc(Cl)c2)C(=O)O)s1 (stereo not shown) [Example 111]",
    "assayed_system": "glycine binding site of the NMDA receptor channel (Rattus norvegicus)",
    "reported_endpoint": "inhibition at 10 µM",
    "experimental_result": "44%"
  }
]
